PROTOCOL_SUMMARY: Luminescence Cell-Based Dose Confirmation HTS to Identify Activators of 5'UTR Stem-Loop Driven Alpha-Synuclein mRNA Translation in H4 Neuroglioblastoma Cells. [Related pubchem assays: 1829 (Project Summary), 1814 (Primary HTS)]
Type: functional
Calls of active or inactive are those of the source.
REPORTED_PROPERTY: EC50

Give recorded EC50. `CCOCC(=O)Nc1nnc(C2CCCCC2)s1`
> 120 µM (not active)

Given `COc1ccc(-n2nc(C(=O)NCC(=O)N3CCN(c4ccccc4F)CC3)c3ccccc3c2=O)cc1` , respond with its EC50.
27.8 µM (active)

Check the records and state EC50 for `O=C(ONc1ccc(N=NC(=O)c2ccccc2O)cc1)c1ccccc1`
> 120 µM (not active)

Write down EC50 measured for item `Sc1nnc(Cn2c(-c3ccccn3)nc3ccccc32)n1-c1ccc2c(c1)OCCO2`
12.5 µM (active)

Provide one value: measured EC50 of `CCn1c(O)cc(=O)nc1SCC(=O)Nc1ccc(C)cc1`
> 120 µM (not active)

Write down EC50 measured for item `CCOc1ccc2nc(SCc3ccccc3C#N)sc2c1`
1.1 µM (active)

----------
Provide the recorded AC50 for the entries that follow.
ASSAY_SYSTEM: Microphthalmia-associated transcription factor (Homo sapiens)
Sequence (O75030 whole entry): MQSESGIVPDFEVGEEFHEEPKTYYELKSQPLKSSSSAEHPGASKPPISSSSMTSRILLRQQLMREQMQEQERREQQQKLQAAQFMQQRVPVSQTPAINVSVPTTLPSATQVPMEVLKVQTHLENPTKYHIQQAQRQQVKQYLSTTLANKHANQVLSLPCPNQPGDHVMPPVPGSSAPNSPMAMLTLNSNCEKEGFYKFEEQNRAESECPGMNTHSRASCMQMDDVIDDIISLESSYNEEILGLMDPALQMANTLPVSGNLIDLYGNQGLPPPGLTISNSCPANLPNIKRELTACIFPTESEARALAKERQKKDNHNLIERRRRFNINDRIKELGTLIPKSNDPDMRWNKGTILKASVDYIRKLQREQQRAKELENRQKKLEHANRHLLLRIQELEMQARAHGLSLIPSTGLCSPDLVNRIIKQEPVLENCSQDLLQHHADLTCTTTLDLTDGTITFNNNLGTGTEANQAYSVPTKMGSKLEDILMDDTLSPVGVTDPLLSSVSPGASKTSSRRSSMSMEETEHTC
PROTOCOL_SUMMARY: reducers of TRPM1 reporter luminescence, concentration series – cell-based, SK-MEL-5, cherry-picked, set 3, MITF inhibitor project, dose response (AID 493073);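 note: SK-MEL-5 melanoma cells with luciferase driven by the MITF target TRPM1 promoter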
Format: functional
Calls of active or inactive are those of the source.

Identify the reported AC50 for the following entry. `N#CCc1ccc(NC(=O)/C=C/c2ccc([N+](=O)[O-])o2)cc1`
4.97 µM (active)

Tell me AC50 reported for `COC1=C(c2ccccc2)C(=O)c2ccccc2C1=O`
9.05 µM (active)

Look up and report measured AC50 for this entry: `Cc1ccccc1C(=O)N/N=C/c1ccc([N+](=O)[O-])s1`
1.88 µM (active)

Check the records and state AC50 for `Cn1c(/C=C/c2cccc([N+](=O)[O-])c2)c([N+](=O)[O-])c(=O)n(C)c1=O`
27.8 µM (active)

Dear colleague, please send me the reported AC50 for `N=C(NOC(=O)c1ccccc1Cl)c1ccccn1` when you can.
8.87 µM (active)

Entry `CC(C)(C)C(=O)Nc1cc2nn(-c3ccccc3)nc2cc1Cl` needs its AC50 filled in; supply it.
0.495 µM (active)

Report AC50, nothing else, for this molecule: `O=C(/C=C/c1ccc([N+](=O)[O-])s1)N1CCCCC1`
4.16 µM (active)

// Input: `CCCCN1CCc2c1nc1ccc(Br)cc1c2N` . Output its AC50 only.
12.2 µM (active)

Note AC50 for the molecule shown: `O=C(O)c1cccc(N/N=C/c2cccs2)c1`
1.51 µM (active)

Hello, please tell me recorded AC50 for this one: `O=C(Nc1ccc(Cl)cc1)Nc1cccc(C(=O)O)c1`
3.79 µM (active)

----------
Give EC50 for every item shown.
ASSAY_SYSTEM: Heat shock factor protein 1 (Mus musculus)
Sequence (P38532 whole entry): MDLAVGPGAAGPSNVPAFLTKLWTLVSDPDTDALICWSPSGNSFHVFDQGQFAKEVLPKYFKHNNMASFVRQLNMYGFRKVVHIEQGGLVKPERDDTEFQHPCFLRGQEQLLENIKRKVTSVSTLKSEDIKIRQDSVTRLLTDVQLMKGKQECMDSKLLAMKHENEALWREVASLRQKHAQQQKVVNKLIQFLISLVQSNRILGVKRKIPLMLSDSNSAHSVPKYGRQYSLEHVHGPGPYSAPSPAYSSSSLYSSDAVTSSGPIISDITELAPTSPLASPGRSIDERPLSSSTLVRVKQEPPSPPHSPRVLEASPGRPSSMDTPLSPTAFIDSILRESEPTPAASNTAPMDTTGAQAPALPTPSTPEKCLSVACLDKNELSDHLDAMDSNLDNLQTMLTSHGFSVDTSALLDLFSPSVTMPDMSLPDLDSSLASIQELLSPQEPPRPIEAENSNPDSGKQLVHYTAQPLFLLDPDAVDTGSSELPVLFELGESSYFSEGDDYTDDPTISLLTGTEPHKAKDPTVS
PROTOCOL_SUMMARY: enhancement of HSF1-driven luciferase signal – cell-based, NIH3T3, luminescence, dose retest, confirmation (AID 435004);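 note: stress induced by proteasome inhibitor MG132 added 30 min after compound; luciferase reporter driven by HSF1 response element in NIH3T3 cells; actives raise luminescence as potentiators of the MG132 stress response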
Format: functional
The source made the active and inactive calls.

Fill in: EC50 on Heat shock factor protein 1 (Mus musculus), entry `O=C(Nc1nc2ccccc2[nH]1)c1ccc(OC(F)F)cc1`
> 260 µM (inconclusive)

Tell me EC50 of `Cc1ccccc1NC(=O)CSc1nc(Nc2ccccc2)nc(N2CCOCC2)n1` when tested on Heat shock factor protein 1 (Mus musculus).
> 260 µM (inactive)

Lab note: record EC50 of `COc1ccc(/C=C2\CN(Cc3ccccc3)C/C(=C\c3ccc(OC)c(O)c3)C2=O)cc1O` tested on Heat shock factor protein 1 (Mus musculus).
8.35 µM (active)

With Heat shock factor protein 1 (Mus musculus) as the test system, provide measured EC50 for this compound: `Cn1c(=O)oc2cc(S(=O)(=O)N3CCCCC3)ccc21`
> 260 µM (inactive)

Send back Heat shock factor protein 1 (Mus musculus) EC50 of CC(=O)NC(=O)NC1OC(=O)C(Cl)=C1Cl (stereo unspecified) only.
> 260 µM (inconclusive)

Report EC50 from Heat shock factor protein 1 (Mus musculus) testing of `COc1cccc(CSc2nnc(C(F)(F)F)n2Cc2ccc(F)cc2)c1`
> 260 µM (inactive)
